Measurement Conditions: in methanol, 303.15 K
Value Kind: solubility (mole fraction)

- COC(=O)c1cc(O)c(O)c(O)c1: 0.0931

----------
Measurement Conditions: in n-propanol, 308.15 K
Value Kind: solubility (mole fraction)

- COC(=O)c1cc(O)c(O)c(O)c1: 0.0582

----------
Measurement Conditions: in acetone, 298.15 K
Value Kind: solubility (mole fraction)

• COC(=O)c1cc(O)c(O)c(O)c1 = 0.099

----------
Measurement Conditions: in methyl acetate, 298.15 K
Value Kind: solubility (mole fraction)

* COC(=O)c1cc(O)c(O)c(O)c1 | 0.0305

----------
Measurement Conditions: in acetone, 293.15 K
Value Kind: solubility (mole fraction)

• COC(=O)c1cc(O)c(O)c(O)c1 = 0.0929

----------
Measurement Conditions: in n-propanol, 333.15 K
Value Kind: solubility (mole fraction)

* COC(=O)c1cc(O)c(O)c(O)c1 | 0.0957

----------
Measurement Conditions: in acetone, 308.15 K
Value Kind: solubility (mole fraction)

* COC(=O)c1cc(O)c(O)c(O)c1 | 0.113

----------
Measurement Conditions: in ethyl acetate, 298.15 K
Value Kind: solubility (mole fraction)

* COC(=O)c1cc(O)c(O)c(O)c1 | 0.0247

----------
Measurement Conditions: in isobutanol, 328.15 K
Value Kind: solubility (mole fraction)

• COC(=O)c1cc(O)c(O)c(O)c1 = 0.0528

----------
Measurement Conditions: in n-butanol, 303.15 K
Value Kind: solubility (mole fraction)

* COC(=O)c1cc(O)c(O)c(O)c1 | 0.0446
